target: 15-hydroxyprostaglandin dehydrogenase [NAD(+)] (Homo sapiens) (UniProt P15428); assay: qHTS Assay for Inhibitors of HPGD (15-Hydroxyprostaglandin Dehydrogenase); details: purified HPGD, NADH fluorescence kinetic, PGE2 substrate; note: potency is the fitted concentration of half-maximal effect
Sequence (P15428 whole entry, looked up): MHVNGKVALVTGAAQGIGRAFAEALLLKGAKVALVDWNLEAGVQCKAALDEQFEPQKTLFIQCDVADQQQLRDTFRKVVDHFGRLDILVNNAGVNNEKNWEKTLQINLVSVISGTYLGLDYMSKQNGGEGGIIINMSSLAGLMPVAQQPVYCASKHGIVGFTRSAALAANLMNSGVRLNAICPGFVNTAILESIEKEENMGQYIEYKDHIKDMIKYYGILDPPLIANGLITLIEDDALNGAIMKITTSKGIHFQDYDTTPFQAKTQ
The campaign covered roughly 150,000 compounds. About 6,500 (4.3%) were called active. Another 12% or so got no clear call; they are omitted. Many of the other results were omitted from the sample, so actives are more common in it than they were.
property-label: Potency

Look over these answered cases.
-- ask Kindly indicate its recorded Potency. Item: "O=C(c1ccc(S(=O)(=O)c2ccccc2)cc1)N1CCCCCC1"
-- reply 17.8 µM (active)

-- ask Kindly indicate its recorded Potency. Item: "Cc1ccc(/C=N\n2c(-c3ccccc3)n[nH]c2=S)s1"
-- reply 11.2 µM (active)

-- ask Kindly indicate its recorded Potency. Item: "Oc1ccccc1/C=N/n1c(-c2cccs2)n[nH]c1=S"
-- reply 2.51 µM (active)

***
-- ask Kindly indicate its recorded Potency. Item: "CCn1c(=N)n(CC(=O)c2cccc(OC)c2)c2ccccc21"
-- reply 35.5 µM (active)

-- ask Kindly indicate its recorded Potency. Item: "S=c1[nH]nc(-c2ccccc2)n1/N=C/c1c[nH]c2ccccc12"
-- reply 2 µM (active)

-- ask Kindly indicate its recorded Potency. Item: "S=c1[nH]nc(CSCc2ccc(Cl)cc2Cl)n1-c1ccccc1"
-- reply 3.16 µM (active)

-- ask Kindly indicate its recorded Potency. Item: "CS(=O)(=O)Nc1ccc(C(=O)N2CCCC2)cc1"
-- reply 20 µM (active)

====

molecular target: 15-hydroxyprostaglandin dehydrogenase [NAD(+)] (Homo sapiens); assay: qHTS Assay for Inhibitors of HPGD (15-Hydroxyprostaglandin Dehydrogenase); conditions: purified HPGD, NADH fluorescence kinetic, PGE2 substrate; note: potency is the fitted concentration of half-maximal effect
In all, about 150,000 compounds went through this assay and about 6,500 (4.3%) were called active. About 12% were inconclusive and are not listed. Many of the other results were omitted from the sample, so actives are more common in it than they were.
property-label: Potency

Look over these answered cases.
-- ask Kindly indicate its recorded Potency. Item: "CCOC(=O)c1sc(=S)n(-c2cccc(OC)c2)c1N"
-- reply 28.2 µM (active)

-- ask Kindly indicate its recorded Potency. Item: O=C1c2ccccc2C(O)N1Cc1ccccc1Cl (configuration not stated)
-- reply 12.6 µM (active)

-- ask Kindly indicate its recorded Potency. Item: N#CC1=C(SCc2ccccc2)NC(=O)C(C#N)C12CCCC2 (configuration not stated)
-- reply 17.8 µM (active)

-- ask Kindly indicate its recorded Potency. Item: "COc1cc(OC)c(-n2cc(-c3ccc(Cl)cc3)[nH]c2=O)cc1Cl"
-- reply 7.08 µM (active)

-- ask Kindly indicate its recorded Potency. Item: "O=C(c1cccnc1)N(c1cc2sc(=O)oc2c2ccccc12)S(=O)(=O)c1ccccc1"
-- reply 17.8 µM (active)

For the next question, use this compound.
-- ask Kindly indicate its recorded Potency. Item: "CCN1C(=O)/C(=C2/Sc3ccccc3N2CCCS(=O)(=O)O)SC1=S"
-- reply 20 µM (active)

====

Listed next: entries and their corresponding Potency.
target: 15-hydroxyprostaglandin dehydrogenase [NAD(+)] (Homo sapiens) (UniProt P15428); assay: qHTS Assay for Inhibitors of HPGD (15-Hydroxyprostaglandin Dehydrogenase); details: purified HPGD, NADH fluorescence kinetic, PGE2 substrate; note: potency is the fitted concentration of half-maximal effect
In all, about 150,000 compounds went through this assay and about 6,500 (4.3%) were called active. Another 12% or so got no clear call; they are omitted. The list comes from a sample in which actives are over-represented; it also holds close analogues and randomly drawn compounds.

-- ask Kindly indicate its recorded Potency. Item: "CCOc1ccccc1/C=c1\sc2nc(-c3ccco3)nn2c1=O"
-- reply 17.8 µM (active)

-- ask Kindly indicate its recorded Potency. Item: "S=c1[nH]nc(-c2cccnc2)n1/N=C/C(Cl)=C\c1ccccc1"
-- reply 1.58 µM (active)

***
-- ask Kindly indicate its recorded Potency. Item: "Cc1ccc(C(=O)N2CCCCCC2)cc1Br"
-- reply 5.01 µM (active)

====

Listed next: entries and their corresponding Potency.
biological target: 15-hydroxyprostaglandin dehydrogenase [NAD(+)] (Homo sapiens); assay: qHTS Assay for Inhibitors of HPGD (15-Hydroxyprostaglandin Dehydrogenase); conditions: purified HPGD, NADH fluorescence kinetic, PGE2 substrate; note: potency is the fitted concentration of half-maximal effect
In all, about 150,000 compounds went through this assay and about 6,500 (4.3%) were called active. Not shown: some 12% with an inconclusive outcome. This excerpt belongs to a sample that is enriched for actives.

-- ask Kindly indicate its recorded Potency. Item: "CC(C)CNC(=O)COC(=O)/C=C/c1ccccc1[N+](=O)[O-]"
-- reply 28.2 µM (active)

-- ask Kindly indicate its recorded Potency. Item: "Cn1cccc1C(=O)Nc1nccs1"
-- reply 31.6 µM (active)

-- ask Kindly indicate its recorded Potency. Item: "CC1CCN(C(=O)c2cc3nc(C4CC4)cc(C(F)(F)F)n3n2)CC1"
-- reply 1.26 µM (active)

-- ask Kindly indicate its recorded Potency. Item: "COC(=O)c1sc(=S)n(-c2ccccc2)c1N"
-- reply 14.1 µM (active)

-- ask Kindly indicate its recorded Potency. Item: "O=C(NC1CCCCC1)c1ccc(CNc2c(N3CCOCC3)c(=O)c2=O)cc1"
-- reply 14.1 µM (active)

-- ask Kindly indicate its recorded Potency. Item: "COC(=O)c1cccc(-n2[nH]nnc2=S)c1"
-- reply 28.2 µM (active)

-- ask Kindly indicate its recorded Potency. Item: "O=C(Nc1ccon1)c1sc2ccccc2c1Cl"
-- reply 15.8 µM (active)

-- ask Kindly indicate its recorded Potency. Item: COc1ccccc1-n1cnc2cc(C(=O)NCC3CCCO3)ccc21 (stereo not drawn)
-- reply 12.6 µM (active)

-- ask Kindly indicate its recorded Potency. Item: "Cc1cc2cc(CNC(=O)c3cccs3)ccc2[nH]1"
-- reply 7.08 µM (active)

-- ask Kindly indicate its recorded Potency. Item: "O=C(O)c1cccc(S(=O)(=O)Nc2ccc(O)cc2Sc2nc3ccccc3s2)c1"
-- reply 10 µM (active)

***
-- ask Kindly indicate its recorded Potency. Item: O=C(Nc1nc(-c2ccncc2)cs1)C1COc2ccccc2O1 (stereo not drawn)
-- reply 7.94 µM (active)

-- ask Kindly indicate its recorded Potency. Item: "N#Cc1ccccc1-n1c(N)c(C(=O)N2CCCC2)sc1=S"
-- reply 25.1 µM (active)

-- ask Kindly indicate its recorded Potency. Item: "Cc1ccc(/C=N/NC(=O)c2sccc2OCc2ccc(F)cc2)cc1"
-- reply 31.6 µM (active)

====

biological target: 15-hydroxyprostaglandin dehydrogenase [NAD(+)] (Homo sapiens); test: qHTS Assay for Inhibitors of HPGD (15-Hydroxyprostaglandin Dehydrogenase); settings: purified HPGD, NADH fluorescence kinetic, PGE2 substrate; note: potency is the fitted concentration of half-maximal effect
Among all 150,000 compounds or so, about 6,500 (4.3%) were called active. About 12% were inconclusive and are not listed. Many of the other results were omitted from the sample, so actives are more common in it than they were.
property-label: Potency

Look over these answered cases.
-- ask Kindly indicate its recorded Potency. Item: "O=c1[nH]c(-c2cccs2)nc2ccccc12"
-- reply 15.8 µM (active)

-- ask Kindly indicate its recorded Potency. Item: "Cc1c(Br)cc(C(=O)N2CCCCCC2)c(C)c1C"
-- reply 14.1 µM (active)

-- ask Kindly indicate its recorded Potency. Item: Cc1sc(NC(=O)C2C3CCC(O3)C2C(=O)O)c(C(=O)OC(C)C)c1-c1ccc(Cl)cc1 (stereo not given)
-- reply 35.5 µM (active)

-- ask Kindly indicate its recorded Potency. Item: "CCn1c(Cc2cccs2)nnc1SCC(=O)c1ccc(C)cc1"
-- reply 15.8 µM (active)

For the next question, use this compound.
-- ask Kindly indicate its recorded Potency. Item: "O=C(O)c1c(Br)c(Br)c(Br)c(Br)c1C1c2ccc(O)cc2Oc2cc(O)ccc21"
-- reply 2.51 µM (active)
